Exercise: for every item that follows, state its recorded apparent KD of K4 kissing-loop reporter.
Tested on: K4 kissing-loop RNA reporter;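 also: bound reporter read as fluorescence of individual clusters on recovered sequencing chips by microscopy, with normalized cluster intensities fitted with a binding model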
Assay: apparent KD of K4 kissing-loop reporter; higher = weaker reporter binding
Details: Eterna round: R107; input ligand: theophylline 20 uM
Give bare numbers, in nM.

chain_sequence="UUUAGGAACUGAGGAUAUUCGAAGAAAUAUAGUGAUGUUAUAUAAGGAGGAGGAGGGAGGGAGGAAGGAGAAGGCAGAAGAGGAG [ExFMNB.E]" experimental_endpoint="apparent KD of K4 kissing-loop reporter" endpoint_result=330
chain_sequence="GGCGGCUGCGCGCAAGCGCAGCCGGCCGAUACCAGCGCGACGGCGCGCCCUUGGCAGCGGCGCCGAGUGAUGUUCGGCCUGCCGU [#2 Same State - Theophylline A Attempt #22 (HarryS)]" experimental_endpoint="apparent KD of K4 kissing-loop reporter" endpoint_result=149
chain_sequence="GUCGGCCGCGCGCAAGCGCGGCCGGCCGAUACCAGCGCGCCGGUGCGCCCUUGGCAGCGGCACCGAGUGAUGUUCGGUCAGACGA [#2 Same State - Theophylline A Attempt #6 (HarryS)]" experimental_endpoint="apparent KD of K4 kissing-loop reporter" endpoint_result=113
chain_sequence="UGAUACCAGACGGCCGCCACUCCCGUAAGUCAAAGACUUACGAAGAGAGUCGUCCAGUGAUGUUGGAGGACCGGGUCUGGUAUCU [FiskerMod 12 - Jieux - Exclusion - Tryptophan B]" experimental_endpoint="apparent KD of K4 kissing-loop reporter" endpoint_result=138

Consider now this further sequence.
Under K4 kissing-loop RNA reporter: apparent KD of K4 kissing-loop reporter value of AAAAUAAAUCAGUGAUGUUGGUAUCUGGAUACCAGCGAUAAUAGUCGCCCUUGGCAGCCAUGGACGUACAAAAUAAGUACGUCCU [MatMod 19 - Jieux - Same State - Theophylline A] ?
170

====

Tested on: MS2 coat protein
Assay: apparent KD of MS2 coat protein, switch OFF state (with FMN for OFF switches, without FMN for ON switches); designed switch direction (-1 OFF switch, 1 ON switch): 1; higher = weaker reporter binding
Details: FMN input: 0 or 200 uM; Eterna round: R93 (includes R88 designs)
experimental.endpoint: apparent KD of MS2 coat protein (µM)
Answers are plain numbers, in µM.

Past entries and their recorded results:
chain_sequence="AAGAAACAUGAGGAUCACCCAUGUAGAAAUAUGGGAGGAUAUACGAAGACGAAAGUCGAAGUAGAAGGCCUAAGAA [Mat - Same State 1 - Meechl mod - D131]" experimental_endpoint="apparent KD of MS2 coat protein" endpoint_result=0.0719
chain_sequence="AAAAAAAAAGUAGAGGAUAUCCGAGUGGUAACAUGAGGAUCACCCAUGUGAAGAAAGGAAGAUGAGGAGAAGGCUACAAAAAAAAA [Mat - Mod of Nando]" experimental_endpoint="apparent KD of MS2 coat protein" endpoint_result=0.0422
chain_sequence="AGAAGACAUGAGGAUCACCCAUGUGGGAAUAUGGGAGGAUAUACAAAGACGAGAGUCAGAGUAGAAGGCCUAGGAA [salish99-SS1-091(!)]" experimental_endpoint="apparent KD of MS2 coat protein" endpoint_result=0.132
chain_sequence="AAGAAACAUGAGGAUCACCCAUGUCGAGAGAGACGAGGAUAUCUGAAUCGAUUAGAUUACGGAGAAGGCGUGAAAA [Same State 1.2 (Same State of Confusion2 - minimal change )]" experimental_endpoint="apparent KD of MS2 coat protein" endpoint_result=0.0304

Please look at the items below and tell me apparent KD of MS2 coat protein for each one, in order.
1. GAAAAACAUGAGGAUCACCCAUGUAGAAACAUGGGAGGAUAUACAAAGACGAAAGUCAAAGUAGAAGGCCUAAAAA [Mat - Same State 1 - Mod - D160]
2. AUCUAACAUGAGGAUCACCCAUGUAUUCAAAAACAAGGAUAUAUAACAAACAAACAACAAAUAGAAGGUGUAAAUA [Default title]

0.851
0.0196

Cited source for all entries: the supplement of paper PMC9170038
